Reference source for all entries: paper PMC5789083

# Test system: P. aeruginosa 27853
# Format: cell-based, Pseudomonas aeruginosa
# condition notes: MgCl2 0.5 mM
Where no end group is shown, it is not given here.
observed property: MIC
Hey, just the number and the unit after it is fine.

Example cases with answers are listed next.
(Q) Identify the reported MIC for the following entry. ILKKLLKKVKSI-NH2 [Hp1404-T1d]
(A) 3.13 µM

(Q) Identify the reported MIC for the following entry. ILKKLLKGVKSI-NH2 [Hp1404-T1c]
(A) 12.5 µM

New cases:
(Q) Identify the reported MIC for the following entry. GILGKLWEGVKSIF-NH2 [Hp1404]
(A) 25 µM

(Q) Identify the reported MIC for the following entry. ILKKLLKKVKKI-NH2 [Hp1404-T1e]
(A) 3.13 µM

* * *

# System: Pseudomonas aeruginosa and MRPA strains
# protocol text: microbe, parasite or virus in culture
# Assay type: cell-based
# condition notes: P. aeruginosa 1162 (multidrug-resistant); broth micro-dilution, 37 °C, 18–24 h, triplicate
Where no end group is shown, it is not given here.
observed property: MIC (µM)
Kindly provide the numeric value in µM only, without the unit symbol.

(Q) Identify the reported MIC for the following entry. ILKKLLKKVKSI-NH2 [Hp1404-T1d]
(A) 1.56

(Q) Identify the reported MIC for the following entry. ILKKLLKKVKKI-NH2 [Hp1404-T1e]
(A) 1.56

(Q) Identify the reported MIC for the following entry. ILKKLLKGVKSI-NH2 [Hp1404-T1c]
(A) 3.13

(Q) Identify the reported MIC for the following entry. GILGKLWEGVKSIF-NH2 [Hp1404]
(A) 12.5

* * *

# Test system: Pseudomonas aeruginosa and MRPA strains
# protocol text: microbe, parasite or virus in culture
# Format: cell-based
# condition notes: P. aeruginosa 778 (multidrug-resistant); broth micro-dilution, 37 °C, 18–24 h, triplicate
Where no end group is shown, it is not given here.
Reported MIC values for a set of substances
Kindly provide the numeric value in µM only, without the unit symbol.

(Q) Identify the reported MIC for the following entry. ILKKLLKKVKSI-NH2 [Hp1404-T1d]
(A) 3.13

(Q) Identify the reported MIC for the following entry. GILGKLWEGVKSIF-NH2 [Hp1404]
(A) 12.5

New cases:
(Q) Identify the reported MIC for the following entry. ILKKLLKGVKSI-NH2 [Hp1404-T1c]
(A) 6.25

(Q) Identify the reported MIC for the following entry. ILKKLLKKVKKI-NH2 [Hp1404-T1e]
(A) 1.56

* * *

# System: Pseudomonas aeruginosa and MRPA strains
# protocol text: microbe, parasite or virus in culture
# Type: cell-based
# condition notes: P. aeruginosa 4319 (multidrug-resistant); broth micro-dilution, 37 °C, 18–24 h, triplicate
Where no end group is shown, it is not given here.
observed property: MIC (µM)
Kindly provide the numeric value in µM only, without the unit symbol.

(Q) Identify the reported MIC for the following entry. ILKKLLKKVKKI-NH2 [Hp1404-T1e]
(A) 3.13

(Q) Identify the reported MIC for the following entry. GILGKLWEGVKSIF-NH2 [Hp1404]
(A) 12.5

(Q) Identify the reported MIC for the following entry. ILKKLLKKVKSI-NH2 [Hp1404-T1d]
(A) 3.13

Let us move to another entry and its MIC.
(Q) Identify the reported MIC for the following entry. ILKKLLKGVKSI-NH2 [Hp1404-T1c]
(A) 6.25
